ASSAY DETAILS: UWB1.289 Cancer Cell Toxicity qHTS against the NCATS CANVASS Library (AID 1347347); also: nearly all actives have a fitted effect of over 60% in size
TEST PARAMETERS: UWB1.289 viability, CellTiter-Glo luminescence, 72 h; series mostly up to 38.3 µM
Inconclusive results are not listed. The source made the active and inactive calls. Calls follow the shape of the dose curve; as a rule, active = well fitted cell-killing curve with a large enough effect; inconclusive = small, poorly fitted or top-dose-only effect; inactive = flat fitted curve, though single readings scatter.
Return exactly one item of active, inactive

Example results:
COc1cc(/C=C/C(=O)OC[C@@H](Cc2ccc(O)c(OC)c2)[C@@H](COC(=O)/C=C/c2ccc(O)c(OC)c2)Cc2ccc(O)c(OC)c2)ccc1O	active
C=C(Cl)[C@](Cl)(CBr)CC[C@@H](Br)C(C)(C)Cl	active

Input: Recorded test outcome, item "CC1=C2CC[C@]3(C)[C@H](CC=C4[C@@H]5CC(C)(C)CC[C@@H]5C(=O)[C@H](O)[C@]43C)[C@@]2(C)C=C(O)C1=O"
Output: inactive

Input: What did the test return for COC1C(C)OC(OCC23C[C@@H]4[C@H](C)CC[C@H]4C4(C=O)CC2C=C(C(C)C)C34C(=O)O)[C@@H](O)[C@H]1O (some centres undefined) ?
Output: inactive
